Target: T1, GGA1 1-157 VHS (domain begin residue: 1, domain end residue: 157), Q9UJY5
T1 chain: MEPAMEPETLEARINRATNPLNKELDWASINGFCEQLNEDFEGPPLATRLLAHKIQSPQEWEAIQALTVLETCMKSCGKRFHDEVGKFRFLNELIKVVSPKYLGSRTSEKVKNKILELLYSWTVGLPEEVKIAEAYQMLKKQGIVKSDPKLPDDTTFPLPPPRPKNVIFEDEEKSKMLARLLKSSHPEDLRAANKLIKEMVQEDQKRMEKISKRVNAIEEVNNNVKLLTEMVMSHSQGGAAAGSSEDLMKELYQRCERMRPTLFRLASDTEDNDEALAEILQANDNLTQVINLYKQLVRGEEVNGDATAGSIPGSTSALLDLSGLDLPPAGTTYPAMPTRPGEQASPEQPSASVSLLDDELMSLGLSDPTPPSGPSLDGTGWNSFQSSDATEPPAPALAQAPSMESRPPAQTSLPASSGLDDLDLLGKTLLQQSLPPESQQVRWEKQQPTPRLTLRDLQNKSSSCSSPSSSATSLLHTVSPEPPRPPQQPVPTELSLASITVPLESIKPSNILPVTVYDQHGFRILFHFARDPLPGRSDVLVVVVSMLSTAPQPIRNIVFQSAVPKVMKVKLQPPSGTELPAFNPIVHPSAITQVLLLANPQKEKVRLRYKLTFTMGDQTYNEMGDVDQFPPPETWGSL
Assay: phage ELISA signal ratio (GST-PRM binding over GST background); higher = stronger binding of peptide-phage to the PRM
Provide the reported phage ELISA signal ratio of each item.
# respond with the number and nothing more

Prompt: Which phage ELISA signal ratio value belongs to WGHYEEDQMFVFMDHE ?
Completion: 19.8

Prompt: Which phage ELISA signal ratio value belongs to HDFYIPYMYQDVTMIM ?
Completion: 6.03

Prompt: Which phage ELISA signal ratio value belongs to QTMTWEARDPSKMLEL ?
Completion: 12.5

Prompt: Which phage ELISA signal ratio value belongs to DEILLHLPWAAMHWEG ?
Completion: 22.3

Prompt: Which phage ELISA signal ratio value belongs to PQIQWYMDDILLVPTI ?
Completion: 15.5

Prompt: Which phage ELISA signal ratio value belongs to WDIDMWDLQEWMMIQS ?
Completion: 13.9

Prompt: Which phage ELISA signal ratio value belongs to TMHHDDQLLDLYSVRK ?
Completion: 18.5

Prompt: Which phage ELISA signal ratio value belongs to GEMDDPMMHFSWVAMW ?
Completion: 12.6
